biological target: Angiopoietin-1 receptor (Homo sapiens); experiment: Inhibition Assay
Sequence (Q02763 whole entry): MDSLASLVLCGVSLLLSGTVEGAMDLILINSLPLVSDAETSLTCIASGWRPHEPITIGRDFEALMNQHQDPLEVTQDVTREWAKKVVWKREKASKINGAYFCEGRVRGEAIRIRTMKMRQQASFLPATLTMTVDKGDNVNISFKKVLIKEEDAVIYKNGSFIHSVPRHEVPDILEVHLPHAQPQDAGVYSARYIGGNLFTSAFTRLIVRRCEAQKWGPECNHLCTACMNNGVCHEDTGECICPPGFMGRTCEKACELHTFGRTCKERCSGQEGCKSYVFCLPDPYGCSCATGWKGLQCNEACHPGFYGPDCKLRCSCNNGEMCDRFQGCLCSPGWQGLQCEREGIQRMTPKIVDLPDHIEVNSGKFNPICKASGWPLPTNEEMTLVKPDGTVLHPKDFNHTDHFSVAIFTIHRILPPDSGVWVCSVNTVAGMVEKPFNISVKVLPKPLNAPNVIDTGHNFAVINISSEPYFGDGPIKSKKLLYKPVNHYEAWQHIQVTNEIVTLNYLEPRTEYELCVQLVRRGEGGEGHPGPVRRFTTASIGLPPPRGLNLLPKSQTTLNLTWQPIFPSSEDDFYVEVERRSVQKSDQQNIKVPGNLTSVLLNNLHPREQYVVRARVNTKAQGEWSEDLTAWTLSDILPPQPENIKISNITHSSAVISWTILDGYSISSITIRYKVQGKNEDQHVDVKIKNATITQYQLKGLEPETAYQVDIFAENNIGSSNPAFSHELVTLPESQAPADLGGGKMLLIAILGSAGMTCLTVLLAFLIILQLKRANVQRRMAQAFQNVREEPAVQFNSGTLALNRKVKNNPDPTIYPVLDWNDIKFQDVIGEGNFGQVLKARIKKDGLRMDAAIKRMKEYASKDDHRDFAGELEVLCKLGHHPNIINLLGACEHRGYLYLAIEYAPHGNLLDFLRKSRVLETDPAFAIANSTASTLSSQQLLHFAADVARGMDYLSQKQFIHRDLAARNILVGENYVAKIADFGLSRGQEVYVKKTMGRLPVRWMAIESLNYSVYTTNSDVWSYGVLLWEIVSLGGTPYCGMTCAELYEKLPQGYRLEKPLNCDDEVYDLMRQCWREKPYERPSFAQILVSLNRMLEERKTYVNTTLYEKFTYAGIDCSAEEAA
Quick list: pIC50 per entry.
Conceptually, pIC50 converts a concentration in mol/L into minus its log10.

>>> numeric_result("CC1=C(CC(=O)O)c2ccc(Br)cc2/C1=C\\c1ccoc1")
5.52
>>> numeric_result("CC1=C(CC(=O)O)c2cc(F)ccc2/C1=C\\c1cccc(OCc2ccccc2)c1")
4.96
>>> numeric_result("CC1=C(CC(=O)O)c2cc(F)ccc2/C1=C\\c1ccc(F)c(F)c1")
5.30

Let us examine a further case.
What does the record list as pIC50 for `CC1=C(CC(=O)O)c2ccc(Br)cc2/C1=C\c1ccsc1` ? 6.00

====

Heads up, these compounds all have IC50 values measured for Fibroblast growth factor receptor 1 (Homo sapiens).

>>> result("CCC1=C(CC(=O)O)c2cc(F)ccc2/C1=C\\c1ccoc1 [Sulindac analogue, 15]")
"3 µM"

Let us examine a further case.
What does the record list as IC50 for CC1=C(CC(=O)O)c2ccc(Br)cc2/C1=C\c1ccsc1 [Sulindac analogue, 19] ? 23 µM

====

Heads up, these molecules all have IC50 values measured for Vascular endothelial growth factor receptor 3 (Homo sapiens).
A complete answer gives the number and then names the unit.

>>> result("CC1=C(CC(=O)O)c2cc(F)ccc2/C1=C\\c1ccsc1 [Sulindac analogue, 13]")
"15 µM"

Item CC1=C(CC(=O)O)c2cc(Cl)ccc2/C1=C\c1ccoc1 [Sulindac analogue, 17] with Vascular endothelial growth factor receptor 3 (Homo sapiens) - IC50? 14 µM
